# system: human 20S proteasome, chymotrypsin-like (ChT-L) activity (Homo sapiens, UniProt P28074)
# experimental-details: biochemical
# condition-notes: ChT-like Human 20S IC50, SDS-activated human 20S, [E] 2.7 nM, pH 8.1, 37°C, Suc-LLVY-AMC 52 µM
Peptide text beside a SMILES is read from it.
observation-type: IC50

Solved entries:
>  <compound>
CC[C@H](C)[C@@H]1NC(=O)[C@@H]2CCCN2C(=O)[C@H](CCCCN)NC(=O)[C@H](CCCCN)NC(=O)[C@H](CO)NC(=O)[C@H](Cc2ccccc2)NC(=O)[C@H]([C@@H](C)O)NC(=O)[C@@H](NC(=O)[C@H](CCCNC(=N)N)NC(=O)CN)CSSC[C@@H](C(=O)N[C@@H](Cc2ccccc2)C(=O)N2CCC[C@H]2C(=O)N[C@@H](CC(=O)O)C(=O)O)NC1=O [Analogue VII] (HELM PEPTIDE1{G.R.C.T.F.S.K.K.P.I.C.F.P.D}$PEPTIDE1,PEPTIDE1,3:R3-11:R3$$$V2.0)

>  <IC50>
3.41 µM

$$$$
>  <compound>
CC[C@H](C)[C@@H]1NC(=O)[C@@H]2CCCN2C(=O)[C@H]([C@@H](C)CC)NC(=O)[C@H](CCCNC(=N)N)NC(=O)[C@H](CO)NC(=O)[C@H](CCCCN)NC(=O)[C@H]([C@@H](C)O)NC(=O)[C@@H](NC(=O)[C@H](CCCNC(=N)N)NC(=O)CN)CSSC[C@@H](C(=O)N[C@@H](Cc2ccccc2)C(=O)N2CCC[C@H]2C(=O)N[C@@H](CC(=O)O)C(=O)O)NC1=O [Analogue IV] (HELM PEPTIDE1{G.R.C.T.K.S.R.I.P.I.C.F.P.D}$PEPTIDE1,PEPTIDE1,3:R3-11:R3$$$V2.0)

>  <IC50>
2.49 µM

$$$$
>  <compound>
CC[C@H](C)[C@@H]1NC(=O)[C@@H]2CCCN2C(=O)[C@H](CCCCN)NC(=O)[C@H](CCCCN)NC(=O)[C@H](CO)NC(=O)[C@H](C)NC(=O)[C@H]([C@@H](C)O)NC(=O)[C@@H](NC(=O)[C@H](CCCNC(=N)N)NC(=O)CN)CSSC[C@@H](C(=O)N[C@@H](Cc2ccccc2)C(=O)N2CCC[C@H]2C(=O)N[C@@H](CC(=O)O)C(=O)O)NC1=O [Analogue VIII] (HELM PEPTIDE1{G.R.C.T.A.S.K.K.P.I.C.F.P.D}$PEPTIDE1,PEPTIDE1,3:R3-11:R3$$$V2.0)

>  <IC50>
5.8 µM

$$$$

Provide each entry's IC50 from the list below.
1. CC[C@H](C)[C@@H]1NC(=O)[C@@H]2CCCN2C(=O)[C@H](CCCCN)NC(=O)[C@H](CC(C)C)NC(=O)[C@H](CO)NC(=O)[C@H](CCCNC(=N)N)NC(=O)[C@H]([C@@H](C)O)NC(=O)[C@@H](NC(=O)[C@H](CCCNC(=N)N)NC(=O)CN)CSSC[C@@H](C(=O)N[C@@H](Cc2ccccc2)C(=O)N2CCC[C@H]2C(=O)N[C@@H](CC(=O)O)C(=O)O)NC1=O [Analogue III] (HELM PEPTIDE1{G.R.C.T.R.S.L.K.P.I.C.F.P.D}$PEPTIDE1,PEPTIDE1,3:R3-11:R3$$$V2.0)
2. CC[C@H](C)[C@@H]1NC(=O)[C@@H]2CCCN2C(=O)[C@H](CCCCN)NC(=O)[C@H](CC(C)C)NC(=O)[C@H](CO)NC(=O)[C@H](CCCCN)NC(=O)[C@H]([C@@H](C)O)NC(=O)[C@@H](NC(=O)[C@H](CCCNC(=N)N)NC(=O)CN)CSSC[C@@H](C(=O)N[C@@H](Cc2ccccc2)C(=O)N2CCC[C@H]2C(=O)N[C@@H](CC(=O)O)C(=O)O)NC1=O [Analogue II] (HELM PEPTIDE1{G.R.C.T.K.S.L.K.P.I.C.F.P.D}$PEPTIDE1,PEPTIDE1,3:R3-11:R3$$$V2.0)

Output line:
1. 3.36 µM
2. 2.66 µM

Quick batch: IC50 for everything below.
1. CC[C@H](C)[C@@H]1NC(=O)[C@@H]2CCCN2C(=O)[C@H](C)NC(=O)[C@H](C)NC(=O)[C@H](CO)NC(=O)[C@H](CCCCN)NC(=O)[C@H]([C@@H](C)O)NC(=O)[C@@H](NC(=O)[C@H](CCCNC(=N)N)NC(=O)CN)CSSC[C@@H](C(=O)N[C@@H](Cc2ccccc2)C(=O)N2CCC[C@H]2C(=O)N[C@@H](CC(=O)O)C(=O)O)NC1=O [Analogue IX] (HELM PEPTIDE1{G.R.C.T.K.S.A.A.P.I.C.F.P.D}$PEPTIDE1,PEPTIDE1,3:R3-11:R3$$$V2.0)
2. CC[C@H](C)[C@@H]1NC(=O)[C@@H]2CCCN2C(=O)[C@@H]2CCCN2C(=O)[C@H]([C@@H](C)CC)NC(=O)[C@H](CO)NC(=O)[C@H](CCCCN)NC(=O)[C@H]([C@@H](C)O)NC(=O)[C@@H](NC(=O)[C@H](CCCNC(=N)N)NC(=O)CN)CSSC[C@@H](C(=O)N[C@@H](Cc2ccccc2)C(=O)N2CCC[C@H]2C(=O)N[C@@H](CC(=O)O)C(=O)O)NC1=O [Analogue I]

Output line:
1. > 100 µM
2. 51.6 µM
